A compilation of pIC50 values for IRAK4 (Homo sapiens (Human)) from the published literature.
pIC50: −log10 of the molar value.

Illustrative cases are given below, each with its answer.
CC(C)(O)[C@H](F)CNC(=O)c1cnc(-c2cnn3cc(Cl)cnc23)cc1NC1CC(F)(F)C1    8.40
COC[C@@H]1CCCN1C(=O)CCCCc1cn(-c2ccccc2)c(NC(=O)c2cccc(-c3cn[nH]c3)c2)n1    > 7.30
Cn1cc(-n2ccc3nc(Nc4cnn(CCF)c4)nc(O[C@H]4CCOC4)c32)cn1    ≥ 7.00
Cn1cc(-c2cccc(-c3ncc(-c4cnn(C)c4)c(NCCN4CCOC4=O)n3)c2)cn1    6.00 to 7.00

input: Dear colleague, I am looking for the recorded pIC50 of the following compound: `Cc1cc(Nc2nc(OC3CCNCC3)c3c(ccn3-c3cnn(C)c3)n2)sn1`
output: 6.00 to 7.00
